# assayComment: basal HepG2 mitochondrial membrane potential changes, profiling panel, cell-based, JC-1 fluorescence, 24 h, 100 nL compound (AID 1167); also: test concentration not given here
# conditionDescription: higher = more signal
measurementLabel: z-score

{"compound": "CN(C)CCCNC(=O)[C@@]1(C)c2ccccc2C(=O)N(Cc2ccccc2)[C@H]1c1ccc(CO)cc1", "readoutNumber": 0.303}
{"compound": "CCOc1cc(C(O)C2C=CC3C(=O)N(C)C(=O)C3N2Nc2ccccc2)ccc1O (stereo not drawn)", "readoutNumber": -1.48}
{"compound": "C=C(C(=O)CC[C@@H](OC(C)=O)c1ccc(CO)o1)C(C)C", "readoutNumber": -1.5}
{"compound": "CC(C)C[C@@H]1NC(=O)[C@@H]2C[C@H](C(=O)NCCCCN(C)C)[C@H](c3cccc(OCCO)c3)N2C1=O", "readoutNumber": -0.627}
{"compound": "CCOC(=O)C[C@H]1[C@H](OC(=O)c2ccccc2-c2ccccc2)[C@@H](NC(=O)c2ccc(-c3ccccc3)cc2)c2cc(OCCCO)ccc2N1C(=O)c1ccc2ccccc2n1", "readoutNumber": -0.149}
{"compound": "COc1ccc(CCNC(=O)[C@@]2(Sc3ccc(C)cc3)CC(=O)N(C3Cc4ccccc4C3)[C@@H]2c2ccc(CO)cc2)cc1", "readoutNumber": -0.114}
{"compound": "C=CC[C@@]1(C(=O)N2CCOCC2)N=C(c2ccc(OCCCO)cc2)O[C@@H]1c1ccccc1CN=[N+]=[N-]", "readoutNumber": 1.97}
{"compound": "Cc1ccc(S[C@]2(C(=O)O)CC(=O)N(Cc3cc(C(F)(F)F)cc(C(F)(F)F)c3)[C@@H]2c2ccc(CO)cc2)cc1", "readoutNumber": -0.555}

----------
# assayComment: small-molecule microarray binders of probe aXIP, primary screen, biochemical, NeuroSMM set, 635/667 nm fluorescence (AID 1119);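 also: probe is the protein aXip251-270 applied at 1 µg/mL to compound-printed slides; binding of probe to printed compounds measured as 667 nm fluorescence plus signal to noise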
# conditionDescription: higher = more signal, called active from +8 up or from −8 down
Could you label it Y if measured composite Z-score is 0.05 or higher, and N otherwise?

{"smi": "C=CCOC(=O)[C@H]1[C@@H]2C(=O)O[C@@H](c3ccccc3)[C@@H](c3ccccc3)N2[C@@H](c2ccc(OCCOC(=O)[C@H]3C[C@H]4C(=O)N[C@@H](CC(C)C)C(=O)N4[C@H]3c3cccc(OCCO)c3)cc2)[C@]12C(=O)Nc1ccc(I)cc12", "assignedLabel": "Y"}
{"smi": "COC(=O)Cn1c(C(=O)N(C)C)cc2c1C[C@H]1CN(C(=O)c3ccccc3)[C@@](Cc3ccc(F)cc3)(C(=O)OC)[C@@H]21", "assignedLabel": "N"}
{"smi": "COCCCNC(=O)[C@]1(CCS(=O)(=O)c2ccccc2)N=C(c2ccc(OCCCO)cc2)O[C@@H]1c1ccccc1N=[N+]=[N-]", "assignedLabel": "Y"}
{"smi": "[N-]=[N+]=Nc1ccccc1[C@H]1OC(c2ccc(OCCCO)cc2)=N[C@@]1(CCS(=O)(=O)c1ccccc1)C(=O)NCCN1CCOCC1", "assignedLabel": "N"}
{"smi": "COCCOC(=O)N1C(=O)[C@@]2(c3cc(C#CCCO)ccc31)[C@H](c1ccccc1OCCO)N1[C@H](c3ccccc3)[C@H](c3ccccc3)OC(=O)[C@H]1[C@@H]2C(=O)Nc1nc2ccccc2s1", "assignedLabel": "N"}

----------
As shown below, each of these compounds has a reported composite z-score value.
# testedOn: Follistatin (Homo sapiens) (UniProt P19883)
# Sequence (P19883 whole entry, looked up): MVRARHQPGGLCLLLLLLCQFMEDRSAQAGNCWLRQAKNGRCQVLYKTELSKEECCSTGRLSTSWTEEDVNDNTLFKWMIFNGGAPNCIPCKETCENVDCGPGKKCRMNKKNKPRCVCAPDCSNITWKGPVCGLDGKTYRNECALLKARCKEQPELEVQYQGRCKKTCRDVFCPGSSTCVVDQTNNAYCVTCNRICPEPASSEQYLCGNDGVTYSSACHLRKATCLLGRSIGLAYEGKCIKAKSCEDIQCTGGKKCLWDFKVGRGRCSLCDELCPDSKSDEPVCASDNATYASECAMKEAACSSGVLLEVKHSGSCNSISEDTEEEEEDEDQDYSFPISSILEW
# assayComment: follistatin binders on small-molecule microarrays, primary screen, biochemical, small-molecule microarray, 635/667 nm fluorescence (AID 1132)
# conditionDescription: FST binding, 635 nm fluorescence, higher = more signal
measurementLabel: composite z-score

{"compound": "CCOc1cc(C(O)C2C=CC3C(=O)N(c4ccccc4)C(=O)C3N2Nc2ccc(C#N)cc2)ccc1O (centres undefined)", "readoutNumber": 0.765}
{"compound": "CN1C(=O)C2C=CC(C(O)c3cccc(O)c3)N(Nc3ccccc3)C2C1=O (centres undefined)", "readoutNumber": 0.214}
{"compound": "CC1CC/C=C\\[C@H]2OC34C=CCN(c5ccc(Cl)cc5)C(=O)[C@H]3N(CCCCCO)C(=O)[C@]4(C)C2C(=O)O1 (some centres undefined)", "readoutNumber": -1.58}
{"compound": "COCCCNC(=O)[C@]1(CCS(=O)(=O)c2ccccc2)N=C(c2ccc(OCCCO)cc2)O[C@@H]1c1ccccc1CN=[N+]=[N-]", "readoutNumber": 1.32}
{"compound": "C[N+](C)(C)CCCCCCNC(=O)[C@H]1C[C@H]2C(=O)N[C@@H](Cc3ccccc3)C(=O)N2[C@H]1c1ccc(O)cc1", "readoutNumber": 1.34}
{"compound": "COCCOC(=O)N1C(=O)[C@@]2(c3cc(C#CC4=CCCCC4)ccc31)[C@H](c1ccc(OCCO)cc1)N1[C@H](c3ccccc3)[C@H](c3ccccc3)OC(=O)[C@H]1[C@@H]2C(=O)N1CCN(c2ncccn2)CC1", "readoutNumber": 1.29}
{"compound": "CC=CC(O)C1C=CC2C(=O)N(c3ccccc3)C(=O)C2N1Nc1ccccc1F (centres undefined)", "readoutNumber": 0.0954}
{"compound": "C=CCC(OC(C)=O)[C@@H]1[C@@H](N(Cc2cccc3ccccc23)C(=O)Cc2ccc(OC)cc2)c2cc(OCCCO)ccc2N1C(=O)c1ccc2ccccc2n1 (some centres undefined)", "readoutNumber": 0.822}
{"compound": "COc1ccc([Si](C)(C)[C@@H]2[C@@H](CC(=O)N3Cc4ccccc4C[C@H]3CO)O[C@]3(C(=O)N(C)c4ccccc43)[C@H]2C)cc1", "readoutNumber": 1.52}
{"compound": "O=C1O[C@H](c2ccccc2)[C@H](c2ccccc2)N2[C@H]1[C@@H](C(=O)Nc1nc3ccccc3s1)[C@]1(C(=O)Nc3ccc(C#CCCO)cc31)[C@H]2c1ccc(O)cc1", "readoutNumber": 1.26}
{"compound": "CC(C)[Si](C#C[Si](C(C)C)(C(C)C)C(C)C)(O[C@H](C)c1cn([C@H](CO)Cc2ccccc2)nn1)C(C)C", "readoutNumber": -0.093}
{"compound": "COCCOC(=O)N1C(=O)[C@@]2(c3ccccc31)[C@H](C(=O)N1CCN(c3ncccn3)CC1)[C@H]1C(=O)O[C@H](c3ccccc3)[C@H](c3ccccc3)N1[C@@H]2c1ccc(O)cc1", "readoutNumber": -0.147}
{"compound": "Cc1ccccc1C(O)C1C=CC2C(=O)N(C)C(=O)C2N1N(c1ccccc1)c1ccccc1 (centres undefined)", "readoutNumber": 0.799}
{"compound": "COC(=O)[C@@]1(Cc2ccc(F)cc2)[C@H]2c3cc(C(=O)N4CCCC4)n(CCN4CNCC4=O)c3C[C@H]2CN1C(=O)c1ccccc1", "readoutNumber": -0.0189}

----------
# assayComment: PSAC antagonists in infected red cells, primary screen, cell-based, P. falciparum Indochina, OD700, 2 h (AID 1155);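 also: lysis reports solute entry through the parasite surface anion channel PSAC; channel blockers reduce lysis of infected cells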
# conditionDescription: P. falciparum Indochina infected erythrocytes, osmotic lysis OD700; higher = more signal, called active from +8 up or from −8 down

{"compound": "COc1ccc(-c2nc(-c3ccccc3)c3c(c2C)CO[Si]3(C(C)C)C(C)C)cn1", "z-score": -0.0994}
{"compound": "[N-]=[N+]=Nc1ccccc1C[C@]1(C(N)=O)N=C(c2ccc(OCCCO)cc2)O[C@H]1c1ccccc1N=[N+]=[N-]", "z-score": 23.5}
{"compound": "COC(=O)[C@@]1(Cc2ccc(F)cc2)[C@H]2c3cc(C(=O)N4CCCC4)n(CCN4CNCC4=O)c3C[C@H]2CN1C(=O)c1ccccc1", "z-score": 0.811}
{"compound": "NC(=O)N1C(=O)C2C(C1=O)C1C=C(CCCO)C2C(c2cccs2)N1Cc1cccc(OC(F)(F)F)c1 (stereo not given)", "z-score": 1.42}
{"compound": "CCCNC(=O)[C@@]1(c2ccc([N+](=O)[O-])cc2)CC(=O)N(C2CCCCC2)[C@@H]1c1ccc(CO)cc1", "z-score": 1.01}

----------
# testedOn: Fibroblast growth factor 10 (Homo sapiens)
# assayComment: FGF10 binders on small-molecule microarrays, primary screen, biochemical, small-molecule microarray, 635 nm fluorescence (AID 1102)
# conditionDescription: FGF10 binding, fluorescence 635 nm, higher = more signal

{"molecule": "CN1C(=O)C2C=CC(C(O)c3cccc4ccccc34)N(N3CCCCC3)C2C1=O (centres undefined)", "composite z-score": 0.595}
{"molecule": "CCOC(=O)c1ccc(NC(=O)O[C@H]2[C@H](OC(=O)Nc3ccc4c(c3)OCO4)[C@H](OC(=O)Nc3ccc4c(c3)OCO4)[C@@H](OC)O[C@@H]2CO)cc1", "composite z-score": 1.33}
{"molecule": "C=CCNC(=O)[C@H]1[C@@H]2C(=O)O[C@@H](c3ccccc3)[C@@H](c3ccccc3)N2[C@@H](c2ccc(O)cc2)[C@]12C(=O)Nc1ccc(C#CC3(O)CCCCCC3)cc12", "composite z-score": 0.155}
{"molecule": "CO[C@H]1O[C@H](CO)[C@@H](OC(=O)Nc2ccccc2-c2ccccc2)[C@H](OC(=O)Nc2ccc3c(c2)OCO3)[C@H]1OC(=O)Nc1ccc2c(c1)OCO2", "composite z-score": 1.24}

Where these numbers come from: PubChem BioAssay
